# System: Danio rerio Tg(wt1b:EGFP) embryo, pronephros
# Method Summary: glomerular width (mean of left and right), fold change vs DMSO control; higher = wider glomerulus
# Assay Conditions: 25 µM; exposure: 24-48 hpf
Counter-ions that a name gives are not always drawn.
Recorded glomerular width for the following molecules
Property: glomerular width

[
  {
    "Molecule": "CCOc1ccc(NC(C)=O)cc1",
    "Property": "glomerular width",
    "Readout Value": 1.08
  },
  {
    "Molecule": "O=C1CN(/N=C/c2ccc(-c3ccc([N+](=O)[O-])cc3)o2)C(=O)N1 [Dantrolene sodium salt]",
    "Property": "glomerular width",
    "Readout Value": 0.974
  },
  {
    "Molecule": "CC(C)NCC(O)c1cc(O)cc(O)c1 (centres undefined) [Metaproterenol sulfate, orciprenaline sulfate]",
    "Property": "glomerular width",
    "Readout Value": 1.02
  },
  {
    "Molecule": "CCCCC(CC)CN1CN(CC(CC)CCCC)CC(C)(N)C1 (centres undefined)",
    "Property": "glomerular width",
    "Readout Value": 0.954
  },
  {
    "Molecule": "C(=C\\c1ccccc1)/CN1CCN(C(c2ccccc2)c2ccccc2)CC1",
    "Property": "glomerular width",
    "Readout Value": 1.03
  },
  {
    "Molecule": "CCOC(=O)[C@@](C)(N)Cc1ccc(O)c(O)c1 [Methyldopate hydrochloride]",
    "Property": "glomerular width",
    "Readout Value": 0.912
  },
  {
    "Molecule": "CC(C)(Oc1ccc(CCNC(=O)c2ccc(Cl)cc2)cc1)C(=O)O [Bezafibrate]",
    "Property": "glomerular width",
    "Readout Value": 0.988
  },
  {
    "Molecule": "NS(=O)(=O)c1cc(C2(O)NC(=O)c3ccccc32)ccc1Cl (centres undefined)",
    "Property": "glomerular width",
    "Readout Value": 1.04
  },
  {
    "Molecule": "CC(COc1ccccc1)N(CCCl)Cc1ccccc1 (centres undefined) [Phenoxybenzamine hydrochloride]",
    "Property": "glomerular width",
    "Readout Value": 0.834
  }
]
